Recorded values, source patent US20070072954A1.

Each entry below carries its reported Polymerization Stress.
Method description: Photopolymerization stress measurement (tensilometer)
Type: physicochemical
Measurement conditions: mean(std. dev.), n=3; TOSU monomers 20 mol % in SIL-MIX; BT and SIL-MIX alone
Marks after values point to notes of the source that are not given here.

Solved cases below.
Compound | Obs value
C=CCOCC1(CC)COC2(OC1)OCC(CC)(COCC=C)CO2 (centres unmarked) [Monomer 1] | 0.17 (0.06)* N/mm^2
CCC1(CC)COC2(OC1)OCC1(CCC3OC3C1)CO2 (centres unmarked) [Monomer 5] | 0.33 (0.15)* N/mm^2
C[Si](C)(C)CCC1OCC2(CO1)COC(CC[Si](C)(C)C)OC2 (centres unmarked) [Monomer 4] | 6.90 (1.76)* N/mm^2
C[Si](C)(C)CCCC1COC2(OC1)OCC(CCC[Si](C)(C)C)CO2 (centres unmarked) [Monomer 2] | 0.23 (0.06)* N/mm^2

Turning now to a further record.
Please give the documented Polymerization Stress of C=CCOCC1OCC2(CO1)COC(COCC=C)OC2 (centres unmarked) [Monomer 3]
1.20 (0.17)* N/mm^2

* * *

Overview of reported Work of Fracture across a group of compounds:
Method description: Mechanical properties measurement (3-point bend tests)
Assay type: physicochemical
Measurement conditions: 24-h; mean(std. dev.), n=6; TOSU monomers 20 mol % in SIL-MIX; BT and SIL-MIX alone
Marks after values point to notes of the source that are not given here.

As a guide, the following entries are already answered.
Compound | Obs value
C[Si](C)(C)CCCC1COC2(OC1)OCC(CCC[Si](C)(C)C)CO2 (centres unmarked) | 1.12 (0.42)* kJ/m^2
C=CCOCC1OCC2(CO1)COC(COCC=C)OC2 (centres unmarked) | 7.17 (1.58) kJ/m^2
CCC1(CC)COC2(OC1)OCC1(CCC3OC3C1)CO2 (centres unmarked) | 5.33 (1.09) kJ/m^2
C=CCOCC1(CC)COC2(OC1)OCC(CC)(COCC=C)CO2 (centres unmarked) | 5.82 (2.02) kJ/m^2

Next compound, please.
Return value of Work of Fracture for input C[Si](C)(C)CCC1OCC2(CO1)COC(CC[Si](C)(C)C)OC2 (centres unmarked) , no commentary.
5.63 (1.82) kJ/m^2

* * *

Method description: Mechanical properties measurement (3-point bend tests)
Assay type: physicochemical
Measurement conditions: 24-h; mean(std. dev.), n=6; TOSU monomers 20 mol % in SIL-MIX; BT and SIL-MIX alone; the values are: Ultimate (flexural) strength
Measured Flexural ultimate strength, listed per entry for reference.
Unit MPa implied. Number only.

Answered examples (3):
Molecule | Flexural ultimate strength (MPa)
CCC1(CC)COC2(OC1)OCC1(CCC3OC3C1)CO2 (centres unmarked) | 96
C[Si](C)(C)CCC1OCC2(CO1)COC(CC[Si](C)(C)C)OC2 (centres unmarked) | 92.2
C=CCOCC1(CC)COC2(OC1)OCC(CC)(COCC=C)CO2 (centres unmarked) | 84.6

Quote Flexural ultimate strength reported for C=CCOCC1OCC2(CO1)COC(COCC=C)OC2 (centres unmarked) please.
87.8

Give recorded Flexural ultimate strength. C[Si](C)(C)CCCC1COC2(OC1)OCC(CCC[Si](C)(C)C)CO2 (centres unmarked)
42.4

* * *

Method description: Photoreactivity assessment (photo DSC enthalpy of polymerization)
Assay type: physicochemical
Measurement conditions: experimental; TOSU monomers 20 mol % in SIL-MIX, SIL-MIX alone; 3 wt % PI, 1 wt % CQ, 0.1 wt % ED; 400-500 nm, 10 min, 25° C.; n=1
Marks after values point to notes of the source that are not given here.
Attribute measured: Net Enthalpy ΔH

Would you please look over these solved cases?
Compound | Net Enthalpy ΔH
CCC1(CC)COC2(OC1)OCC1(CCC3OC3C1)CO2 (centres unmarked) | −82^b J/g
C=CCOCC1OCC2(CO1)COC(COCC=C)OC2 (centres unmarked) | −170^b J/g
C=CCOCC1(CC)COC2(OC1)OCC(CC)(COCC=C)CO2 (centres unmarked) | −116^b J/g
C[Si](C)(C)CCC1OCC2(CO1)COC(CC[Si](C)(C)C)OC2 (centres unmarked) | −170^b J/g

Turning to the following compound.
Determine its reported Net Enthalpy ΔH: C[Si](C)(C)CCCC1COC2(OC1)OCC(CCC[Si](C)(C)C)CO2 (centres unmarked)
−78^b J/g

* * *

Method description: Photoreactivity assessment (photo DSC enthalpy of polymerization)
Type: physicochemical
Measurement conditions: 20 mol % in SIL-MIX; calculated for an inert diluent
Attribute measured: ΔH (experimental)/ΔH (calculated) (%)
Your answer should be a plain number; it is taken to be in %.

// known answers, use as guide
Compound | ΔH (experimental)/ΔH (calculated) [%]
C[Si](C)(C)CCC1OCC2(CO1)COC(CC[Si](C)(C)C)OC2 (centres unmarked) | 117
C=CCOCC1OCC2(CO1)COC(COCC=C)OC2 (centres unmarked) | 117
CCC1(CC)COC2(OC1)OCC1(CCC3OC3C1)CO2 (centres unmarked) | 57

Determine from records and report ΔH (experimental)/ΔH (calculated) for C[Si](C)(C)CCCC1COC2(OC1)OCC(CCC[Si](C)(C)C)CO2 (centres unmarked)
54

Tell us which ΔH (experimental)/ΔH (calculated) value is on record for C=CCOCC1(CC)COC2(OC1)OCC(CC)(COCC=C)CO2 (centres unmarked)
80

* * *

Method description: Photoreactivity assessment (photo DSC enthalpy of polymerization)
Assay type: physicochemical
Measurement conditions: TOSU monomers 20 mol % in SIL-MIX, SIL-MIX alone
As shown below, each of these molecules has a reported Exotherm Peak Maximum value.
Please reply with the bare figure in s and do not write the unit itself.

The following molecules have reported results that may help.
Molecule | Exotherm Peak Maximum / s
C=CCOCC1OCC2(CO1)COC(COCC=C)OC2 (centres unmarked) | 15
CCC1(CC)COC2(OC1)OCC1(CCC3OC3C1)CO2 (centres unmarked) | 16
C[Si](C)(C)CCCC1COC2(OC1)OCC(CCC[Si](C)(C)C)CO2 (centres unmarked) | 14
C=CCOCC1(CC)COC2(OC1)OCC(CC)(COCC=C)CO2 (centres unmarked) | 14

Please examine the following record next.
Look up and report measured Exotherm Peak Maximum for this entry: C[Si](C)(C)CCC1OCC2(CO1)COC(CC[Si](C)(C)C)OC2 (centres unmarked)
17

* * *

Method description: Mechanical properties measurement (3-point bend tests)
Assay type: physicochemical
Measurement conditions: 24-h; mean(std. dev.), n=6; TOSU monomers 20 mol % in SIL-MIX; BT and SIL-MIX alone
Threshold check on Flexural elastic modulus: strictly below 2 GPa is Met; on or above 2 GPa is Not met.

Molecule | Group label
C[Si](C)(C)CCC1OCC2(CO1)COC(CC[Si](C)(C)C)OC2 (centres unmarked) [Monomer 4] | Not met

Lab note: Flexural elastic modulus threshold 2 GPa. Does this molecule come in strictly under it? C[Si](C)(C)CCCC1COC2(OC1)OCC(CCC[Si](C)(C)C)CO2 (centres unmarked) [Monomer 2]
Met

Please check: Flexural elastic modulus for CCC1(CC)COC2(OC1)OCC1(CCC3OC3C1)CO2 (centres unmarked) [Monomer 5] , strictly under 2 GPa or not?
Not met

Does this molecule meet the criterion Flexural elastic modulus < 2 GPa? C=CCOCC1OCC2(CO1)COC(COCC=C)OC2 (centres unmarked) [Monomer 3]
Not met

Quick check: Flexural elastic modulus of C=CCOCC1(CC)COC2(OC1)OCC(CC)(COCC=C)CO2 (centres unmarked) [Monomer 1] under 2 GPa?
Not met
